The following compounds are shown together with reported pIC50 values.
target: GST-tagged KRAS-G12D (2-169) (Homo sapiens, UniProt P01116, G12D); assay: Nucleotide exchange assay (NEA), SOS-mediated, HTRF, KRAS G12D; format: biochemical; details: Table 4; IC50 extracted at 30 min; 20 nM SOScat; read-out: NEA G12D IC50
Sequence (P01116 2-169 isoform P01116-2 G12D): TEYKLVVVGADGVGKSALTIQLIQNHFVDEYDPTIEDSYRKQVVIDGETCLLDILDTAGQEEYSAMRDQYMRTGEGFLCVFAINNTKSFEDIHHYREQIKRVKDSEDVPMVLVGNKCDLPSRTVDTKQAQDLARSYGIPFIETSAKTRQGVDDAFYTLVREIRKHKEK
pIC50: −log10 of the molar value.

// below: answered compounds
N#Cc1c(N)sc2c1C1(CC2)CN(c2nc(OCC3(CN4CCOCC4)CC3)nc(N3CCCC4(C3)NC(=O)NC4=O)n2)C1 (stereo not drawn) [Compound 7]	> 8.00
N#Cc1c(N)sc2c1C1(CN(c3nc(OC[C@@]45CCCN4C[C@H](F)C5)nc(N(CCN)C4(C#N)CC4)n3)C1)SC2 [Compound 272]	> 8.00

# next compound below
Param readout= pIC50; system= GST-tagged KRAS-G12D (2-169) (Homo sapiens, UniProt P01116, G12D); entry= CC(O)CN(Cc1cccnc1N)c1nc(OC[C@@]23CCCN2C[C@H](F)C3)nc(N2CC3(CCc4sc(N)c(C#N)c43)C2)n1 (stereo partly drawn) [Compound 141] ; returns value.
7.00 to 8.00
